Sourced from patent US20230348419A1

Listed here: items and their measured Size (nm).
Assay: Nanoparticle characterization of BAQ NPs (DLS, TEM)
Format: physicochemical
Conditions: assembled NPs in water, DLS
METRIC NAME: Size (nm)

>>> measured_value("CCCCCCCCCCCCCN(CCNc1ccnc2cc(Cl)ccc12)CCNc1ccnc2cc(Cl)ccc12")
99.1
>>> measured_value("CCCCCCCCCCCCCCCN(CCNc1ccnc2cc(Cl)ccc12)CCNc1ccnc2cc(Cl)ccc12")
107.3
>>> measured_value("CCCCCCCCCCCCCCCCN(CCNc1ccnc2cc(Cl)ccc12)CCNc1ccnc2cc(Cl)ccc12")
119.7
>>> measured_value("CCCCCCCCCCCCN(CCNc1ccnc2cc(Cl)ccc12)CCNc1ccnc2cc(Cl)ccc12")
102.5
>>> measured_value("CCCCCCCCCCCCCCN(CCNc1ccnc2cc(Cl)ccc12)CCNc1ccnc2cc(Cl)ccc12")
137.9
>>> measured_value("CCCCCCCCCCCCCCCCCCN(CCNc1ccnc2cc(Cl)ccc12)CCNc1ccnc2cc(Cl)ccc12")
96.7

----------
Assay: Drug loading using BAQ13 NPs
Assay type: physicochemical
Details: drug or dye loaded in BAQ13 NPs, mass ratio
METRIC NAME: Drug-loading content (%)

>>> measured_value("CC(=O)c1cc2c(o1)C(=O)c1ccccc1C2=O")
20
>>> measured_value("Nc1cccc2c1CN(C1CCC(=O)NC1=O)C2=O (stereo not drawn) [Lenalidomide]")
50
>>> measured_value("CC(C)C[C@H](NC(=O)[C@H](Cc1ccccc1)NC(=O)c1cnccn1)B(O)O")
50
>>> measured_value("Cc1sc2c(c1C)C(c1ccc(Cl)cc1)=N[C@@H](CC(=O)OC(C)(C)C)c1nnc(C)n1-2")
50
>>> measured_value("COc1ccc(-c2nc(-c3cc(C(F)(F)F)cc(C(F)(F)F)c3)n(Cc3ccc(C(N)=O)cc3)c2-c2ccc(OC)cc2)cc1")
50
>>> measured_value("CC1(C)CCC2=C(O1)c1ccccc1C(=O)C2=O")
33

----------
Assay: Drug loading using BAQ13 NPs
Assay type: physicochemical
Settings: BAQ13 NPs loaded with the drug or dye
Listed here: items and their measured PDI.
METRIC NAME: PDI

>>> measured_value("COc1ccc(-c2nc(-c3cc(C(F)(F)F)cc(C(F)(F)F)c3)n(Cc3ccc(C(N)=O)cc3)c2-c2ccc(OC)cc2)cc1 [Apoptozole]")
0.099
>>> measured_value("CC1(C)CCC2=C(O1)c1ccccc1C(=O)C2=O [β-lapachone]")
0.047
>>> measured_value("CC[C@]1(O)C[C@@H]2CN(CCc3c([nH]c4ccccc34)[C@@](C(=O)OC)(c3cc4c(cc3OC)N(C)[C@H]3[C@@](O)(C(=O)OC)[C@H](OC(C)=O)[C@]5(CC)C=CCN6CC[C@]43[C@@H]65)C2)C1 [Vinblastine]")
0.133
>>> measured_value("Cc1sc2c(c1C)C(c1ccc(Cl)cc1)=N[C@@H](CC(=O)OC(C)(C)C)c1nnc(C)n1-2 [JQ1]")
0.048
>>> measured_value("CC(C)C[C@H](NC(=O)[C@H](Cc1ccccc1)NC(=O)c1cnccn1)B(O)O [Bortezomib]")
0.09
>>> measured_value("COc1cc([C@@H]2c3cc4c(cc3[C@@H](O[C@@H]3O[C@@H]5CO[C@@H](C)O[C@H]5[C@H](O)[C@H]3O)[C@H]3COC(=O)[C@H]23)OCO4)cc(OC)c1O [Etoposide]")
0.104
